Target: MMP-9 (Homo sapiens, UniProt P14780)
Construct: made in house; host or cells: MMP-9-transfected HT1080 cells (spent media)
Sequence (P14780 107-707 limits assumed): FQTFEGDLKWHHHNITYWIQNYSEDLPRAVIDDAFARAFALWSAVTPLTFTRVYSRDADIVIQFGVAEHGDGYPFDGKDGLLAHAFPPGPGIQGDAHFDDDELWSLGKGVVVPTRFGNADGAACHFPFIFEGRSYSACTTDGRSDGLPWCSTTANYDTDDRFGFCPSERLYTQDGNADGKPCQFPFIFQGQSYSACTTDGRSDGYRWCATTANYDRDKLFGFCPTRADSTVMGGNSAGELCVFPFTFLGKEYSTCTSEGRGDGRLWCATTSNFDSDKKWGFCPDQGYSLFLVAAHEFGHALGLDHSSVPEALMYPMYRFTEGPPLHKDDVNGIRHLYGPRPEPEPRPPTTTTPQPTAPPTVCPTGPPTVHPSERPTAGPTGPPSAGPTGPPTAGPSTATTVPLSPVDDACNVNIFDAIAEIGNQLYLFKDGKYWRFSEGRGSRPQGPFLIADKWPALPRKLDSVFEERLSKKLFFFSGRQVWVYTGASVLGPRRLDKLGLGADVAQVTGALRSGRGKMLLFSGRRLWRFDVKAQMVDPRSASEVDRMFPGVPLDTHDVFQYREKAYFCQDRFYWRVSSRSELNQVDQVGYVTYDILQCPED
Experiment: MMP-9 inhibition (in vitro Ki)
Type: biochemical
Details: Table 9; read-out: MMP-9 Ki (IC-50)
Please note: Ki exactly at 10 nM is f. Only values below 10 nM get t.

Please determine if O=C(NO)C1(S(=O)(=O)N2CCC(c3ccc(CCC(F)(F)C(F)(F)F)cn3)CC2)CCN(c2ncccn2)CC1 [Example A178] is below 10 nM in terms of Ki.
t

Please determine if O=C(NO)C1(S(=O)(=O)N2CCC(c3ccc(CCC4CCCC4)cn3)CC2)CCOCC1 [Example A106] is below 10 nM in terms of Ki.
t

Please determine if O=C(NO)C1(S(=O)(=O)N2CCC(F)(c3ccc(CCCC(F)(F)F)cn3)CC2)CCOCC1 [Example A157] is below 10 nM in terms of Ki.
t

Please determine if CN(C(=O)CCCCC1CCN(S(=O)(=O)C2(C(=O)NO)CCOCC2)CC1)c1ccc(OC(F)(F)F)cc1 [Example A163] is below 10 nM in terms of Ki.
f

Please determine if COCc1ccc(C2CCN(S(=O)(=O)C3(C(=O)NO)CCOCC3)CC2)nc1 [Example A177] is below 10 nM in terms of Ki.
t

Please determine if O=C(NO)C1(S(=O)(=O)N2CCC(c3ccc(CCc4ccccc4)cn3)CC2)CCOCC1 [Example A100] is below 10 nM in terms of Ki.
f

Please determine if O=C(NO)C1(S(=O)(=O)N2CCC(c3ccc(CCC(F)(F)C(F)(F)F)cn3)CC2)CCN(C2CC2)CC1 [Example A204] is below 10 nM in terms of Ki.
t

Please determine if O=C(CCCCC1CCN(S(=O)(=O)C2(C(=O)NO)CCOCC2)CC1)N1CC2CCCCC2C1 (centres unmarked) [Example A88] is below 10 nM in terms of Ki.
f

Please determine if CN(Cc1ccco1)C(=O)CCCCC1CCN(S(=O)(=O)C2(C(=O)NO)CCOCC2)CC1 [Example A99] is below 10 nM in terms of Ki.
f

Please determine if O=C(NO)C1(S(=O)(=O)N2CCC(c3ccc(CCC(F)(F)C(F)(F)F)cn3)CC2)CCN(c2cccnc2)CC1 [Example A165] is below 10 nM in terms of Ki.
t

Please determine if O=C(/C=C/C=C/C1CCN(S(=O)(=O)C2(C(=O)NO)CCOCC2)CC1)N1CCc2ccccc21 [Example A80] is below 10 nM in terms of Ki.
f

###

Target: MMP-14 (Homo sapiens, UniProt P50281)
Construct: The catalytic domain enzyme was expressed in E. coli inclusion bodies, solubilized in urea; made in house
Test: In vitro MMP inhibition, Ki determination (fluorogenic substrate II)
Type: biochemical
Settings: human recombinant enzyme (catalytic domain); 4 μM substrate II; room temperature, 1 hr; read-out: MMP-14 Ki
Counter-ions that a name gives are not always drawn.
Record form. Attribute: pKi. Fill in for each entry.
Scale note: pKi = -log10(concentration in M).

Provide one value: measured pKi of O=C(NO)C1(S(=O)(=O)N2CCC(c3ccc(OCC(F)(F)F)cc3)CC2)CCN(C2CC2)CC1 [Example 25, Hydrochloride]
5.27

Provide one value: measured pKi of O=C(NO)C1(S(=O)(=O)N2CCN(c3ccc(OCCCC(F)(F)F)cc3)CC2)CCOCC1 [Example 7, Hydrochloride]
5.36

Provide one value: measured pKi of CCCCc1cnc(N2CCN(S(=O)(=O)C3(C(=O)NO)CCOCC3)CC2)cn1 [Example 1, Dihydrochloride]
5.37

Provide one value: measured pKi of CCCCCc1ccc(N2CCN(S(=O)(=O)C3(C(=O)NO)CCN(CCOC)CC3)CC2)cc1F [Example 13, Dihydrochloride]
5.45

Values from patent US20050209278A1
